experiment: Pharmacokinetic profiles of fluorescein and FAM derivatives in mouse (LC/MS/MS of plasma); format: in vivo, 129SvPas mice; details: 129SvPas, mouse, in vivo, iv, 20 nmol, t1/2, β
assay-endpoint: half-life (min)
Just the number in min, nothing appended.

// sample "O=C(NCCc1ccccc1)c1ccc2c(c1)C(=O)OC21c2ccc(O)cc2Oc2cc(O)ccc21" , its half-life was 53
